Reference source: patent US20160297884A1

# target_entity: T1, cynomolgus monkey BCMA (cynomolgus monkey, UniProt A0A2K5UD97 1-53)
# T1 construct: Soluble analyte in SPR; construct not described; also called cyBCMA; Cyno BCMA
# assay_summary: SPR, IgG immobilised, 25 C
property: kon (M⁻¹ s⁻¹)
Numeric only. Scale: M⁻¹ s⁻¹

I have this binder here, L3.KW/P6E01 (antibody, V domains shown, IgG) VH: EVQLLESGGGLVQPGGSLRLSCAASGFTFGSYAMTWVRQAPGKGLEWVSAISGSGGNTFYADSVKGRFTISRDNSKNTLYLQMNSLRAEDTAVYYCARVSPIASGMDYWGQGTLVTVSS VL: EIVLTQSPGTLSLSPGERATLSCRASQSVSSSYLAWYQQKPGQAPRLLIYGASSRATGIPDRFSGSGSGTDFTLTISRLEPEDFAVYYCKHYGWPPSFTFGQGTKVEIK , and I need its recorded kon.
763000
